test: Phase 1 SAD/MAD pharmacokinetics of oral ATI-450 in healthy subjects (incl. 80/120 mg BID extension); assay type: in vivo, human; details: both sexes, human, plasma, oral, MAD cohorts 10-50 mg BID, day 7; read-out: terminal half-life (mean t1/2), range over cohorts
MEASUREMENT_NAME: half-life

Field request: half-life | item: Cc1cnc(-c2ccnc(C(C)(C)O)n2)cc1-n1c(C)cc(OCc2ncc(F)cc2F)c(Cl)c1=O (single isomer, unassigned) [ATI-450]
9 to 12 h

----------
assay: Phase 1 SAD/MAD pharmacokinetics of oral ATI-450 in healthy subjects (incl. 80/120 mg BID extension); type: in vivo, human; settings: both sexes, human, plasma, oral, 50 mg, 50 mg BID, day 3; read-out: Ctrough
MEASUREMENT_NAME: concentration at 3 day (ng/mL)
Numeric only. Scale: ng/mL

Field request: concentration at 3 day | item: Cc1cnc(-c2ccnc(C(C)(C)O)n2)cc1-n1c(C)cc(OCc2ncc(F)cc2F)c(Cl)c1=O (single isomer, unassigned)
80.6

----------
Assay: Phase 1 SAD/MAD pharmacokinetics of oral ATI-450 in healthy subjects (incl. 80/120 mg BID extension)
Format: in vivo, human
Details: both sexes, human, plasma, oral, 120 mg, 120 mg BID, day 1; read-out: Cmax
Experimental: Study Design. […] Single ascending dose (SAD) cohorts. […] Multiple ascending dose (MAD) cohorts. […] Blood Sampling and Bioanalysis. Two-milliliter blood samples were collected for PK analysis. […] The lower limit of quantification was 0.500 ng/mL. Pharmacokinetics. […] The method was minimally required to have intra- and inter-day precision (coefficients of variation) for pooled plasma quality control samples of ≤15% except at the lower limit of quantitation, where ≤20% was acceptable. […]
MEASUREMENT_NAME: Cmax (ng/mL)
Numeric only. Scale: ng/mL

Field request: Cmax | item: Cc1cnc(-c2ccnc(C(C)(C)O)n2)cc1-n1c(C)cc(OCc2ncc(F)cc2F)c(Cl)c1=O (single isomer, unassigned) [ATI-450]
379

----------
test: Phase 1 SAD/MAD pharmacokinetics of oral ATI-450 in healthy subjects (incl. 80/120 mg BID extension); type: in vivo, human; settings: both sexes, human, plasma, oral, 30 mg, 30 mg BID, day 1; read-out: Tmax, median (min, max)
MEASUREMENT_NAME: Tmax (h)
Numeric only. Scale: h

Field request: Tmax | item: Cc1cnc(-c2ccnc(C(C)(C)O)n2)cc1-n1c(C)cc(OCc2ncc(F)cc2F)c(Cl)c1=O (single isomer, unassigned) [ATI-450]
2

----------
test: Phase 1 SAD/MAD pharmacokinetics of oral ATI-450 in healthy subjects (incl. 80/120 mg BID extension); format: in vivo, human; settings: both sexes, human, plasma, oral, 10 mg, 10 mg BID, day 7; read-out: t1/2 (converted)
MEASUREMENT_NAME: half-life
Reply with the number, then its unit.

Field request: half-life | item: Cc1cnc(-c2ccnc(C(C)(C)O)n2)cc1-n1c(C)cc(OCc2ncc(F)cc2F)c(Cl)c1=O (single isomer, unassigned) [ATI-450]
9.6 h

----------
test: Phase 1 SAD/MAD pharmacokinetics of oral ATI-450 in healthy subjects (incl. 80/120 mg BID extension); assay type: in vivo, human; details: both sexes, human, plasma, oral, 120 mg, 120 mg BID, day 7
MEASUREMENT_NAME: AUC (ng·h/mL)
Numeric only. Scale: ng·h/mL

Field request: AUC | item: Cc1cnc(-c2ccnc(C(C)(C)O)n2)cc1-n1c(C)cc(OCc2ncc(F)cc2F)c(Cl)c1=O (single isomer, unassigned)
2580
